- target entity: human PD1 expressed on a cell surface (human, UniProt Q15116 25-288)
- Sequence (Q15116 25-288): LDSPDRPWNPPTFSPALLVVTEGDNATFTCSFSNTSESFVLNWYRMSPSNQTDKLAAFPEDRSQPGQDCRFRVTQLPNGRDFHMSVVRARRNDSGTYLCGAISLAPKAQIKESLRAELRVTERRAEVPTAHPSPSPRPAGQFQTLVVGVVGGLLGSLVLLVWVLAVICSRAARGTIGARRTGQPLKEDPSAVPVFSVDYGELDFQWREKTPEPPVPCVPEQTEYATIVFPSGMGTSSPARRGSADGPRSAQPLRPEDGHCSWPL
- measurement protocol: cell-based or functional assay
observed property: EC50 for CD4+ T cell proliferation (pM), mixed lymphocyte reaction
Respond with the bare value in pM.

{"binder": "anti-hPD1 antibody #1 (antibody, V domains shown, also called Anti-hPD1 #1; Anti-PD1 #1) VH: QVQLVQSGAEVKKPGASVKVSCKASGYTFTNYWIHWVRQAPGQGLEWMGEIDPYDSYTNYNQKFKGRVTMTVDKSTSTVYMELSSLRSEDTAVYYCARPGFTYGGMDFWGQGTLVTVSS VL: DIQMTQSPSSLSASVGDRVTITCKSSQSLFNSGNQKNYLAWYQQKPGKVPKLLIYGASTRDSGVPYRFSGSGSGTDFTLTISSLQPEDVATYYCQNDHYYPYTFGGGTKVEIKR", "observed": 135}

The record that follows has no EC50 for CD4+ T cell proliferation (pM), mixed lymphocyte reaction shown yet.
Task item: What does the record list as EC50 for CD4+ T cell proliferation (pM), mixed lymphocyte reaction for anti-hPD1 antibody #7 (antibody, human IgG4, V domains shown, also called Anti-hPD1 #7; Anti-PD1 #7) VH: QVQLVQSGAEVKKPGASVKVSCKASGYTFTNYWIHWVRQAPGQGLEWMGEIDPYDSYTNYNQKFKGRVTMTIDKSTNTVYMELSSLRSEDTAVYYCARPGLTYGGMDFWGQGTLVTVSS VL: DIVMTQSPDSLAVSLGERATINCRSSQSLFISGNQKNYLAWYQQKPGQPPKLLIYGASTRESGVPDRFSGSGSGTDFTLTISSLQAEDVAVYYCQNNHYYPYTFGGGTKVEIK ?
Reply: 165

src = patent US20190276542A1
